# Read-out: Pyruvate Dehydrogenase Kinase 4 (PDK4), PDK4 (gene 5166)
# Measurement protocol: LTEA_HepaRG_PDK4: Life Technologies and Expression Analysis (LTEA) Assay for Pyruvate Dehydrogenase Kinase 4 (PDK4) using HepaRG (AID 2283525)
# Conditions used: mRNA level, 48 h; actives raise or lower the signal
Calls of active or inactive are those of the source. The calls were made as follows: active = hit-call score of the fitted dose curve at least 0.9, where 1 is the maximum; inactive = score below 0.9.
Endpoint name: outcome

Chemical string	Value observed
CC(C)O.CC(C)O.OCCN(CCO)CCO.OCCN(CCO)CCO.[Ti]	inactive
Clc1cccc(Cl)c1	inactive
OCCN(CCO)CCO	inactive
Cc1cc(C)cc(C)c1	inactive
CN(C)C(=S)S	inactive
Clc1cccc(Cl)c1Cl	inactive
CCCCCCCCCCCCc1cccc(S(=O)(=O)O)c1	inactive
Oc1cc(Cl)c(Cl)cc1Cl	inactive
